Biological target: Proteinase-activated receptor 2 (Homo sapiens, UniProt P55085)
Sequence (P55085 whole entry): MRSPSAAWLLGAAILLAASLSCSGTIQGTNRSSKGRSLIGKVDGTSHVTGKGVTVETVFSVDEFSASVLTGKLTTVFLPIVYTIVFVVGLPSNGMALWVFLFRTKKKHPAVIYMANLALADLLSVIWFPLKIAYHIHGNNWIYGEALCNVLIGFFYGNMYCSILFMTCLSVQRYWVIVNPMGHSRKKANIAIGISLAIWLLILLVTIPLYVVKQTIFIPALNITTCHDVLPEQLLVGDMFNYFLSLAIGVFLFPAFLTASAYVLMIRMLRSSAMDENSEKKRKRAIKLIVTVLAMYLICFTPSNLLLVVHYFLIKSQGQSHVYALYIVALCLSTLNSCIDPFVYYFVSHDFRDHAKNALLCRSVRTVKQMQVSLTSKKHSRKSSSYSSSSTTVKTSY
Test: Antagonist activity at PAR2 in human EAhy926 cells assessed as inhibition of trypsin-induced intracellular calcium mobilization preincubated for 15 mins followed by trypsin addition by Fluo-4-AM dye based fluorescence assay
Type: functional, cell-based
quantity_name: IC50 (nM)
# unit: nM | format: bare number

Given the compound CC(C)c1cc(-c2ccc(F)cc2)nn2cc(C(=O)N3CCN(C(=O)CCC(=O)O)CC3(C)C)nc12 , what is its reported IC50?
2

====

Target: Proteinase-activated receptor 2 (Homo sapiens)
Test: Antagonist activity at PAR2 in human EAhy926 cells assessed as inhibition of SLIGKV-NH2-induced intracellular calcium mobilization preincubated for 15 mins followed by SLIGKV-NH2 addition by Fluo-4-AM dye based fluorescence assay
Type: functional, cell-based
quantity_name: pIC50
Kindly note that pIC50 refers to -log10 of the concentration in mol/L and answer with the value alone.

Examples with their reported pIC50 follow.
CC(C)c1cc(-c2ccc(F)cc2)nn2cc(C(=O)N3CCN(C(=O)CCC(=O)NCCOCCOCCOCCOCCOCCOCCOCCOCCOCCOCCOCCOCCOCCOCCOCCOCCOCCOCCOCCOCCOCCOCCOCCn4cc(CCC(=O)NCC[C@H](NC(=O)[C@H](Cc5ccc(F)c(F)c5)NC(=O)Nc5ccc6c(CN7CCCC7)nn(Cc7c(Cl)cccc7Cl)c6c5)C(=O)NCc5ccccc5)nn4)CC3(C)C)nc12
5.48
CC(C)c1cc(-c2ccc(F)cc2)nn2cc(C(=O)N3CCN(C(=O)CCC(=O)O)CC3(C)C)nc12
7.00

Here is the next item to consider.
Given the compound COCc1cn(CCOCCOCCOCCOCCOCCOCCOCCOCCOCCOCCNC(=O)CCC(=O)N2CCN(C(=O)c3cn4nc(-c5ccc(F)cc5)cc(C(C)C)c4n3)C(C)(C)C2)nn1 , what is its reported pIC50?
5.15

====

Assay: Half life in mouse plasma at 10 uM by LC-MS/MS analysis
Format: ADME, cell-free
quantity_name: half-life at 10 µM (min)
# unit: min | format: bare number

Given the molecule CC(C)c1cc(-c2ccc(F)cc2)nn2cc(C(=O)N3CCN(C(=O)CCC(=O)NCCOCCOCCOCCOCCOCCOCCOCCOCCOCCOCCOCCOCCOCCOCCOCCOCCOCCOCCOCCOCCOCCOCCOCCn4cc(CCC(=O)NCC[C@H](NC(=O)[C@H](Cc5ccc(F)c(F)c5)NC(=O)Nc5ccc6c(CN7CCCC7)nn(Cc7c(Cl)cccc7Cl)c6c5)C(=O)NCc5ccccc5)nn4)CC3(C)C)nc12 , what is its reported half-life at 10 µM?
336
